Source: ChEMBL document CHEMBL1132487

# Experimental Target: UniProt:P49327
# Sequence (P49327 whole entry, looked up): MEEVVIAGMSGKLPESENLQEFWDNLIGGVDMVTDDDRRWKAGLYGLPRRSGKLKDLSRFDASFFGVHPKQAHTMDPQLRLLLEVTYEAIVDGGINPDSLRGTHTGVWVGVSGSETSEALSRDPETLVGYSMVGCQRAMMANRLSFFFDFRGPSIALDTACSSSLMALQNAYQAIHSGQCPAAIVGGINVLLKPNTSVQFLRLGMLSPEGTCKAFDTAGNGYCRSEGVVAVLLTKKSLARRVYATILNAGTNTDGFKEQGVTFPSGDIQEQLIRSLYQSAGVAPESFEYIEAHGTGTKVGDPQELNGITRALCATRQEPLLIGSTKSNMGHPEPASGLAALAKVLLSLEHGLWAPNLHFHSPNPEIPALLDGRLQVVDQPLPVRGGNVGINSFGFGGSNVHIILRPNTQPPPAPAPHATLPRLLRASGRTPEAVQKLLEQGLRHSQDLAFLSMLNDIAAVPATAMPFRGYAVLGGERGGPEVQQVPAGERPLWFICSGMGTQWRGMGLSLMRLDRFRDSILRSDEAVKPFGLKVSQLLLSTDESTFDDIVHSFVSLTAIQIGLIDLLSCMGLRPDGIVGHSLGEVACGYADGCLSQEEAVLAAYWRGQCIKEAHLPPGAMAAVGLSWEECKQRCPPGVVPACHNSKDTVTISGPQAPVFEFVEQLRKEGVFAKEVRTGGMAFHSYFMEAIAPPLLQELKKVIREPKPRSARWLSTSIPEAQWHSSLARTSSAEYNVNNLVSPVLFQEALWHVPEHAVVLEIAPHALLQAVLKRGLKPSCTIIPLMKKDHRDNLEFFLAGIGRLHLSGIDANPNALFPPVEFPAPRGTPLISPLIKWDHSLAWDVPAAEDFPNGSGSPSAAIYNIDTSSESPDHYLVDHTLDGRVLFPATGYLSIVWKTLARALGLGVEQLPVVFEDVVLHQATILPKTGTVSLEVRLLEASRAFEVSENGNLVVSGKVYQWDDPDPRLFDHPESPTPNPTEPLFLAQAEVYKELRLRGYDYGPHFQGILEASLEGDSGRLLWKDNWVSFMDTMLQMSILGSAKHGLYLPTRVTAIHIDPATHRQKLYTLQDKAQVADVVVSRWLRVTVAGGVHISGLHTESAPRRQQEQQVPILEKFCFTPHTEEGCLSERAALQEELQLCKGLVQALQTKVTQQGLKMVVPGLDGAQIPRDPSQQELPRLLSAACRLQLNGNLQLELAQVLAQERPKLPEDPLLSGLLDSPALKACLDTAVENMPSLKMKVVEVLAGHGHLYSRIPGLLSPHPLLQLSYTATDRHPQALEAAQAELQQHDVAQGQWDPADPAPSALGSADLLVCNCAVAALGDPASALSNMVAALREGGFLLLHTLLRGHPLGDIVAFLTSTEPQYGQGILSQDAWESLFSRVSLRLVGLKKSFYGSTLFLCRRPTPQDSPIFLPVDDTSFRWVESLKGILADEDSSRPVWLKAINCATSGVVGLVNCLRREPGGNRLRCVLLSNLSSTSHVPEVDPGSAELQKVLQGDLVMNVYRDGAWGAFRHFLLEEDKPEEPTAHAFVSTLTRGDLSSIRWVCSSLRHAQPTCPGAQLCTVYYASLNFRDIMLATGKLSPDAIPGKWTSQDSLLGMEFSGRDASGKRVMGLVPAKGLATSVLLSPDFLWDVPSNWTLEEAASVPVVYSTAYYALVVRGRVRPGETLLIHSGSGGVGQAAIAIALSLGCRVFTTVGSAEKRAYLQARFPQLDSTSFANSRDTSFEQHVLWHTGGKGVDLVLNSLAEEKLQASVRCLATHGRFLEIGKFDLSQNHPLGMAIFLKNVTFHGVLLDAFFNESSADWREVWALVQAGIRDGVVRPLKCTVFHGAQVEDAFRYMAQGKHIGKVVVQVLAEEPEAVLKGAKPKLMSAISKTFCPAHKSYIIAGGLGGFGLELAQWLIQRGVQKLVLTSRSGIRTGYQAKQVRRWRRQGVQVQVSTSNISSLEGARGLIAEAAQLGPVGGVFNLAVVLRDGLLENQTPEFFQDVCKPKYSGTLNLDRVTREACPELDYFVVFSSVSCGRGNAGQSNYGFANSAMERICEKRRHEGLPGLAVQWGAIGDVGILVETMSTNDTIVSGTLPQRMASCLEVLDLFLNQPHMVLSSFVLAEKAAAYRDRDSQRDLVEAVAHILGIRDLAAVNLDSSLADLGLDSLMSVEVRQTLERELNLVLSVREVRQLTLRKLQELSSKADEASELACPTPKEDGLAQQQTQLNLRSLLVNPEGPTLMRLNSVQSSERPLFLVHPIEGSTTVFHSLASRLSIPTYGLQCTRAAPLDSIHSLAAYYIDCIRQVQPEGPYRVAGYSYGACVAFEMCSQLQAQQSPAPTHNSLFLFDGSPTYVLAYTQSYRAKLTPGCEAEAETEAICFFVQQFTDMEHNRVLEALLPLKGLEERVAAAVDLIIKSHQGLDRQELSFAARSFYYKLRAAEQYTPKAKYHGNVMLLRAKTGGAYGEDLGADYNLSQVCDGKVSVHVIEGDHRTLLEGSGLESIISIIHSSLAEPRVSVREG
# Assay Protocol: Inhibition of fatty acid synthase at a concentration of 150 (uM)
Measure: inhibition (%)

> print(dat)
                                   compound  experimental.target  recorded.measurement
1  CCCCCCCCCCCCCCCC(=O)[C@H]1O[C@H]1C(=O)N(C)C       UniProt:P49327                     0
2  CCCCCCCCC(O)[C@H]1O[C@H]1C(=O)N(C)C (stereo not given in full)       UniProt:P49327                     0
3  CCCCCCCCCCCCCCCC1OC(=O)[C@@H]2O[C@H]12 (stereo not given in full)       UniProt:P49327                     0
4  CCCCCCCCCCCCCCCCCC(O)[C@H]1O[C@H]1C(=O)N(C)C (stereo not given in full)       UniProt:P49327                     3
5  CCCCCCCCCC1OC(=O)[C@@H]2O[C@H]12 (stereo not given in full)       UniProt:P49327                    40
